solubility (mole fraction) by entry:
recorded.conditions: in n-butanol, 298.15 K
Returns: the value as a bare number; no unit string appended.

See these solved cases before continuing.
COc1cc(-c2cc(-c3ccc(F)cc3)[nH]c(=O)c2C#N)ccc1O; 0.000531
COc1cc(-c2cc(-c3ccc(Cl)cc3)[nH]c(=O)c2C#N)ccc1O; 0.0004

Query: Complete the entry with solubility (mole fraction) for COc1cc(-c2cc(-c3ccc(Br)cc3)[nH]c(=O)c2C#N)ccc1O
Reply: 0.000338

Query: Indicate the recorded solubility (mole fraction) value for this compound: COc1cc(-c2cc(-c3ccc(O)cc3)[nH]c(=O)c2C#N)ccc1O
Reply: 0.000511

Query: Assign solubility (mole fraction) to the following record: COc1ccc(-c2cc(-c3ccc(O)c(OC)c3)c(C#N)c(=O)[nH]2)cc1
Reply: 0.000297
